# ASSAY_REMARKS: Primary fluorescence-based thiol-reactive (MSTI) qHTS assay for identification of artifact compounds. (AID 1845221); further: nearly all actives have a fitted effect of over 65% in size
# MEASUREMENT_PARAMETERS: MSTI thiol-reactivity probe, 1 h; series mostly up to 53.8 µM
Inconclusive results are not listed. The source made the active and inactive calls. The call rests on the fitted dose curve; in most records, active means well fitted inhibition curve with a large enough effect; inconclusive means small, poorly fitted or top-dose-only effect; inactive means no such curve, though single readings can be large or run the other way.
Outcome codes: y for active, n for inactive

# COMPOUND, LABEL_VALUE
rows = [
    ("CNC(=O)O[C@H]1COc2ccc(N3CCN(C4COC4)CC3)cc2[C@@H]1NC(=O)c1ccc(F)cc1", "n"),
    ("COc1c2c(c(C)c3c1C(=O)OC3)OC1(C)CC(O)C3(O)C(C)(C)OC(=O)CCC3(C)C1C2 (stereo unspecified)", "n"),
    ("C=CC(C)(CC/C=C(\\C)CC/C=C(\\C)CC(O)/C=C(\\C)C(=O)O)O[C@@H]1O[C@H](CO)[C@@H](O)[C@H](O)[C@H]1O[C@@H]1O[C@H](CO)[C@@H](O)[C@H](O)[C@H]1O (stereo partly specified)", "n"),
    ("Oc1ccc([C@H]2COc3cc(O)ccc3C2)cc1", "n"),
    ("Cc1nn(C)c(COc2ccc(N3CCN(S(=O)(=O)N(C)C)CC3)cc2)c1-c1cccc2c(CCCOc3cccc4ccccc34)c(C(=O)O)n(CCN3CCOCC3)c12", "n"),
    ("C=C[C@H]1[C@H](O[C@@H]2O[C@H](CO)[C@@H](O)[C@H](O)[C@H]2O)OC=C2C(=O)OCC[C@]21O", "y"),
    ("CC(C)C1=CCC(C)(O)C(OC2OC(CO)C(O)C(O)C2O)C1 (stereo unspecified)", "y"),
    ("O=C(NCc1ccc(OC(F)(F)F)cc1)C1c2ccccc2C(=O)N1C1CCOCC1 (stereo unspecified)", "n"),
    ("CC1=C(C)C(=O)OC(C(C)C2C(O)CC3C4C5OC5C5(O)CC(OC6OC(CO)C(O)C(O)C6O)CC(O)C5(C)C4CCC32C)C1 (stereo unspecified)", "n"),
    ("CCOC(=O)c1ccnc(CNCC(=O)N(CC)CCN(C)C)c1", "n"),
    ("O=C(/C=C/c1c(C(=O)O)[nH]c2cc(Cl)cc(Cl)c12)Nc1ccccc1", "n"),
    ("CC(=O)O[C@@H]1[C@@H](OC(=O)/C=C/c2ccccc2)[C@H](C)O[C@@H](O[C@H]2[C@@H]3C=CO[C@@H](O[C@@H]4O[C@H](CO)[C@@H](O)[C@H](O)[C@H]4O)[C@@H]3[C@@]3(CO)O[C@@H]23)[C@@H]1OC(C)=O", "n"),
    ("COc1c(C)c(OCC=C(C)C)cc2c1C(=O)NC2=O", "n"),
    ("CC(=O)OCC1=C[C@H](O)[C@@H]2C(C(=O)O)=CO[C@@H](O[C@@H]3O[C@H](CO)[C@@H](O)[C@H](O)[C@H]3O)[C@H]12", "n"),
    ("C=C(C)C1CC2(CO)C(=CC1=O)CCC(O)C2C (stereo unspecified)", "n"),
    ("CCOC(=O)[C@H]1O[C@@H]1C(=O)N[C@@H](CC(C)C)C(=O)NCCC(C)C", "n"),
]
